target: Acetylcholinesterase (Homo sapiens) (UniProt P22303); assay: Acetylcholinesterase (AChE) small molecule antagonists: enzyme-based qHTS assay (AID 1347397); settings: AChE enzyme activity inhibition; series mostly up to 115 µM; also: nearly all actives have a fitted effect of over 55% in size
Sequence (P22303 whole entry, looked up): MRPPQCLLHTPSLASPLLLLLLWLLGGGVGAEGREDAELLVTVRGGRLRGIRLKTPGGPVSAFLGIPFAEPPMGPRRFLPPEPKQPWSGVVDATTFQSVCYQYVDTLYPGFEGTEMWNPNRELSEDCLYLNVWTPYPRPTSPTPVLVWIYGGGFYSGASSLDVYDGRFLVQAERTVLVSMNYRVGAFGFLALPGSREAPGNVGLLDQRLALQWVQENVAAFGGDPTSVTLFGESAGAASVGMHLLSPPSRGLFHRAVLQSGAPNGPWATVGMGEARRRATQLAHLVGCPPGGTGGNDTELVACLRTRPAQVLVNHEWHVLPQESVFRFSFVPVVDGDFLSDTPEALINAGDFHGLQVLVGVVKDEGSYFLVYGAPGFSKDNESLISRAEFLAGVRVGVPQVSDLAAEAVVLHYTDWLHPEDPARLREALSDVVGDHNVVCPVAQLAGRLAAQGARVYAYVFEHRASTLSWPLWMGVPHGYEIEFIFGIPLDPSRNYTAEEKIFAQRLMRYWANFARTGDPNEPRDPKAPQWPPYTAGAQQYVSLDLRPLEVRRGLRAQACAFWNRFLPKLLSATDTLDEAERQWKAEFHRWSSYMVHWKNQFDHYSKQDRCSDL
The source made the active and inactive calls. Calls follow the shape of the full dose curve.
One label from this list, please: active, inactive

Use the examples below as a reference point.
Molecule	Label class
O=C1CN2CCOC2(c2ccccc2Cl)c2cc(Cl)ccc2N1 (centres undefined)	inactive
CCOP(=S)(Oc1cnc(C(C)(C)C)nc1)OC(C)C (centres undefined)	active

Query string: # lookup: test call for `CCOC(=O)C1(c2ccccc2)CCN(CCc2ccc(N)cc2)CC1`
Result string: inactive
